Ref: patent US20190241654A1

target: CD47 on CCRF-CEM cells (human, UniProt Q08722 19-323); assay: cell-based or functional assay
Sequence (Q08722 19-323): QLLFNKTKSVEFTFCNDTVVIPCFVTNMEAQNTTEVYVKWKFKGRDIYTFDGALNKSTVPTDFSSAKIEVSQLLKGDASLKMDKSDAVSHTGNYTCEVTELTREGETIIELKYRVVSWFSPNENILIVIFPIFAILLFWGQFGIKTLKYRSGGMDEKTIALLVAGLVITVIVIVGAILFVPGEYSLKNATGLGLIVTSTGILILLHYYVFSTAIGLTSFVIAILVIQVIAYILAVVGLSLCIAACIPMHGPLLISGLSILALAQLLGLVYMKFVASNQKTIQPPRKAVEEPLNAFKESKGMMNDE
Known Phagocytosis EC50 (ug/mL), Donor 2 of a selection of binders
I only need the number, in µg/mL, no unit after it.

Below, each entry is followed by its recorded Phagocytosis EC50 (ug/mL), Donor 2 result.
>>> val("Ab480/Ab1120 (HC Ab480, LC Ab1120) anti-CD47 antibody (antibody, V domains shown, FR and CDR L2 variant of AbParental) VH: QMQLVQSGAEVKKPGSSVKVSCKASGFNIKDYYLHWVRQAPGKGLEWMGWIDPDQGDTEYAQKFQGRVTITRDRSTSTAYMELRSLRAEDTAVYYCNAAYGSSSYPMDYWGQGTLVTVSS VL: NIQMTQSPSSLSASVGDRVTITCRASQDIHRYLSWFQQKPGKVPKHLIYRYVRFVDGVPSRFSGSGSGTEFTLTISSLQPEDFATYYCLQYDEFPYTFGGGTKVEIK")
2.01
>>> val("Ab495/Ab480 (LC Ab495, HC Ab480) anti-CD47 antibody (antibody, V domains shown, Framework variant of AbParental) VH: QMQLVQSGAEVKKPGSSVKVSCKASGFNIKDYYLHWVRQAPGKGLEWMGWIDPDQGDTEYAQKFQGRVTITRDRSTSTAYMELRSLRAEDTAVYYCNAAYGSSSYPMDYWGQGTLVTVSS VL: NIQMTQSPSSLSASVGDRVTITCKASQDIHRYLSWYQQKPGKAPKHLIYRANRLVSGVPSRFSGSGSGTEFTLTISSLQPEDFATYYCLQYDEFPYTFGGGTKVEIK")
0.94
>>> val("AbParental, parental anti-CD47 antibody (antibody, human IgG4 S228P, kappa, V domains shown, Parental anti-CD47 antibody, described in WO 2013/119714 A1; also called Parental LC-HC; parental antibody) VH: QMQLVQSGAEVKKTGSSVKVSCKASGFNIKDYYLHWVRQAPGQALEWMGWIDPDQGDTEYAQKFQDRVTITRDRSMSTAYMELSSLRSEDTAMYYCNAAYGSSSYPMDYWGQGTTVTVSS VL: NIQMTQSPSAMSASVGDRVTITCKASQDIHRYLSWFQQKPGKVPKHLIYRANRLVSGVPSRFSGSGSGTEFTLTISSLQPEDFATYYCLQYDEFPYTFGGGTKVEIKR")
0.13

Ask: Give me measured Phagocytosis EC50 (ug/mL), Donor 2, please, for this binder: Ab356/Ab1120 (HC Ab356, LC Ab1120) anti-CD47 antibody (antibody, V domains shown, FR and CDR L2 variant of AbParental) VH: QMQLVQSGAEVKKPGSSVKVSCKASGFNIKDYYLHWVRQAPGKGLEWMGWIDPDQGDTEYAQKFQGRVTITRDRSTSTAYMELRSLRAEDTAVYYCNAAYGSSSYPMDYWGQGTTVTVSS VL: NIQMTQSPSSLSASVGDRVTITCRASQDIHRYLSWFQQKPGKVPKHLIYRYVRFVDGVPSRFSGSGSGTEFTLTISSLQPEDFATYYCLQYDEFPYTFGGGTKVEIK
Reply: 1.82

Ask: Give me measured Phagocytosis EC50 (ug/mL), Donor 2, please, for this binder: Ab480/Ab1127 (HC Ab480, LC Ab1127) anti-CD47 antibody (antibody, V domains shown, FR and CDR L2 variant of AbParental; The label order is HC/LC although the head says 'LC/HC'; r460 is used) VH: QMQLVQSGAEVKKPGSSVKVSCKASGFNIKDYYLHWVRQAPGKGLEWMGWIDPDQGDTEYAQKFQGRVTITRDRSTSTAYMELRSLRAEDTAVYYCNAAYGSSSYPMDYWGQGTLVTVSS VL: NIQMTQSPSSLSASVGDRVTITCRASQDIHRYLSWFQQKPGKVPKHLIYRESRFVDGVPSRFSGSGSGTEFTLTISSLQPEDFATYYCLQYDEFPYTFGGGTKVEIK
Reply: 1.95
